In this section we review reported IC50 values for a set of compounds.
System: 186277-243-T-J2-PDC complex spheroid growth;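 also: spheroids exposed to compounds for seven days before the viability read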
protocol summary: Anticancer human tumor 186277-243-T-J2-PDC patient-derived colon adenocarcinoma cell line growth inhibition [AhR]
run conditions: curve of first compound; second compound 10 µM

Recorded IC50, per entry:
COc1cc(Nc2ncc3c(n2)-c2ccc(Cl)cc2C(c2c(F)cccc2OC)=NC3)ccc1C(=O)O + CC(CO)NC(=O)c1cc(-c2ccc(Cl)cc2)nn(-c2cnn(C)c2)c1=O | < 31.6 nM
Cn1ncnc1C1c2n[nH]c(=O)c3cc(F)cc(c23)NC1c1ccc(F)cc1 (stereo not drawn) + CC(CO)NC(=O)c1cc(-c2ccc(Cl)cc2)nn(-c2cnn(C)c2)c1=O | > 100 nM

Now examine the next entry.
Any idea what its IC50 is? The compound is COc1cccc2c1C(=O)c1c(O)c3c(c(O)c1C2=O)CC(O)(C(=O)CO)CC3OC1CC(N)C(O)C(C)O1 (stereo not drawn) + CC(CO)NC(=O)c1cc(-c2ccc(Cl)cc2)nn(-c2cnn(C)c2)c1=O
< 31.6 nM
